Target: His tagged PTPN2 (TC45) protein (Homo sapiens)
Construct: made in house
Test: Mobility shift assay (MSA) for potency of PTPN2 inhibitors
Assay type: biochemical
Conditions: read-out: PTPN2 MSA IC50
// IC50 lookup, one value per entry

Below, each entry is followed by its recorded IC50 result.
O=C1CN(c2c(O)cc3ccc(CC4CCN(CC(F)(F)F)C4)cc3c2F)S(=O)(=O)N1 (stereo not shown); 1 to 10 nM
CCCOc1ccc2cc(O)c(N3CC(=O)NS3(=O)=O)c(F)c2c1; 1 to 10 nM

Return IC50 measured with His tagged PTPN2 (TC45) protein (Homo sapiens) given this compound: O=C1CN(c2c(O)cc3ccc(OCCC4CC4(F)F)cc3c2F)S(=O)(=O)N1 (stereo not shown) < 1 nM

Query the reported IC50 for His tagged PTPN2 (TC45) protein (Homo sapiens); item: O=C1CN(c2c(O)cc3ccc(CC4CNC4)cc3c2F)S(=O)(=O)N1 10 to 100 nM

====

Target: His tagged PTPN2 (TC45) protein (Homo sapiens, UniProt P17706)
Construct: made in house
Sequence (P17706 with tags, fused parts or gaps isoform P17706-2): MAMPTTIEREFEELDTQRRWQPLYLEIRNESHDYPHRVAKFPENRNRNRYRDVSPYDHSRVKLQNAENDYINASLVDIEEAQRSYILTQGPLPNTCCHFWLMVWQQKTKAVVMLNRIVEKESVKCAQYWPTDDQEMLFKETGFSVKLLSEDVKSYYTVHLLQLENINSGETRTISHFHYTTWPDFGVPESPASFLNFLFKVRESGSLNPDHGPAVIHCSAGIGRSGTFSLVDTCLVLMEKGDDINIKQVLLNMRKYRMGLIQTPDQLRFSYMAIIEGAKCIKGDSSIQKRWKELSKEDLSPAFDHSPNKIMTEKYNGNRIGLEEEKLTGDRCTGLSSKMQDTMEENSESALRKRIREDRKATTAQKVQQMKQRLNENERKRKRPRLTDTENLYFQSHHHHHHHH
Experiment: Mobility shift assay (MSA) for potency of PTPN2 inhibitors
Assay type: biochemical
Conditions: read-out: PTPN2 MSA IC50
Procedure: Compound activity was determined using in house His tagged PTPN2 (TC45) protein (SEQ ID NO: 1) in an in vitro enzymatic reaction. The enzymatic assay used to determine activity was a mobility shift assay using a LabChip EZ Reader by Caliper Life Sciences. The enzymatic reaction was carried out in assay buffer (50 mM HEPES pH 7.5, 1 mM EGTA, 10 mM EDTA, 0.01% Tween® 20, and 2 mM DTT). […]
// values below are reported IC50

For the compound shown here, CC(C)CS(=O)(=O)N1CC=C(c2ccc3cc(O)c(N4CC(=O)NS4(=O)=O)c(F)c3c2)C1 [Compound 300] , give the reported IC50. < 1 nM

Could you tell me which IC50 is on file for O=C1CN(c2c(O)cc3ccc(OCCF)cc3c2F)S(=O)(=O)N1 [Compound 198] ? 1 to 10 nM

Form field: reported IC50 of CCN(CC)C(=O)COc1ccc2cc(O)c(N3CC(=O)NS3(=O)=O)c(F)c2c1 [Compound 282] 1 to 10 nM

Which IC50 is reported for this compound? O=C1CN(c2c(O)cc3ccc(CC4CCN(S(=O)(=O)C5CC5)C4)cc3c2F)S(=O)(=O)N1 (stereo not drawn) [Compound 261] 1 to 10 nM

Suppose we examine the compound O=C1CN(c2c(O)cc3ccc(OCC4CC4(F)F)cc3c2F)S(=O)(=O)N1 (stereo not drawn) [Compound 210] ; what IC50 value has been reported? < 1 nM

GET /values?readout=IC50&item= COc1ccc2c(Br)c(O)c(N3CC(=O)NS3(=O)=O)c(F)c2c1 [Compound 243] 10 to 100 nM

Report IC50 for N#CC1(CCOc2ccc3cc(O)c(N4CC(=O)NS4(=O)=O)c(F)c3c2)CC1 [Compound 159] please. < 1 nM

Could you share which IC50 value was measured for CC(C)CCNc1ccc2c(F)c(O)c(N3CC(=O)NS3(=O)=O)c(F)c2c1 [Compound 148] ? 1 to 10 nM

Please look up its IC50: O=C1CN(c2c(O)cc3ccc(/C=C/C4CC4)cc3c2F)S(=O)(=O)N1 [Compound 239] 1 to 10 nM

Dear colleague, I am looking for the recorded IC50 of the following compound: O=C1CN(c2c(O)cc3ccc(OC4CC4)cc3c2F)S(=O)(=O)N1 [Compound 223] 1 to 10 nM

meta.source: patent US20210009542A1
